Target: Recombinant KAT6A/MOZ (488-778) protein (Homo sapiens (Human), UniProt Q92794)
Sequence (Q92794 488-778): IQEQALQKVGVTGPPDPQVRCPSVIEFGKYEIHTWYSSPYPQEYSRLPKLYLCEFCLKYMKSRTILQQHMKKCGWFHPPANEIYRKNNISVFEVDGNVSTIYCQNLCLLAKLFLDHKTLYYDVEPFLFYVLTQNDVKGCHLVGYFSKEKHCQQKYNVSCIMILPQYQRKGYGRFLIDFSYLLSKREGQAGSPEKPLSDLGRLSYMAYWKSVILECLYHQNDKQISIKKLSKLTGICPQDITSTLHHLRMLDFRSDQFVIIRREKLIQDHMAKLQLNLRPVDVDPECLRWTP
Test: KAT6A AlphaLISA Inhibition Screening Assay
Type: biochemical
Settings: read-out: Average Kat6A % inhibition @ 1 μM; 1 μM test compound
READOUT_KIND: inhibition at 1 µM (%)

Here's what some known entries look like.
CCc1ccc(OCc2nnco2)c(S(=O)(=O)Nc2noc3cc(Cn4cc(CNC(=O)OC)cn4)cc(OC)c23)c1 [Syn. Ex. 127] : 101
C=C(F)C(=O)NCc1csc(Oc2cc(OC)c3c(NS(=O)(=O)c4cc(CC)ccc4OC)noc3c2)n1 [Syn. Ex. 105] : 68

I = CCc1ccc(OCCN)c(S(=O)(=O)Nc2noc3cc(Cn4cc(CNC(=O)OC)cn4)cc(OC)c23)c1 [Syn. Ex. 75]
II = C=C(F)C(=O)NCc1cnn(Cc2cc(OC)c3c(NS(=O)(=O)c4cc(CC)ccc4OCC#N)noc3c2)c1 [Syn. Ex. 43]
Of I and II , which shows the smaller inhibition at 1 µM value? Select an item and report its label.
I
(I: 59%, II: 96%)

====

Molecular target: GST-Tagged Kat6B (Homo sapiens (Human))
Sequence (Q8WYB5 657-1069): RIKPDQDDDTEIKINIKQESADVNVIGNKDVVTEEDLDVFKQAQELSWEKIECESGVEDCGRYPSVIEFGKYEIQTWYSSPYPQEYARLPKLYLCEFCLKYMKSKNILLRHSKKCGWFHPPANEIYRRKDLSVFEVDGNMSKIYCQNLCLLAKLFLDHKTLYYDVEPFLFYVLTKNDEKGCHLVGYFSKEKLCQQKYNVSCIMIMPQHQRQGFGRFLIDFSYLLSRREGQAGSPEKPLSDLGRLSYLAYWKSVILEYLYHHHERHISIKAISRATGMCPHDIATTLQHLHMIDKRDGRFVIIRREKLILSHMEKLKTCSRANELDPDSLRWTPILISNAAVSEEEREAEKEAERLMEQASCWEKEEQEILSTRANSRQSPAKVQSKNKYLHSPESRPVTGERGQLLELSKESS
READOUT_KIND: IC50 (nM)

Here's what some known entries look like.
COC(=O)NCc1cnn(Cc2cc(OC)c3c(NS(=O)(=O)c4ccccc4OC)noc3c2)c1 [Syn. Ex. 7] : 571
C=C(F)C(=O)NCc1cnc(Oc2cc(OC)c3c(NS(=O)(=O)c4cc(CC)ccc4OC)noc3c2)s1 [Syn. Ex. 102] : 2530
COc1cccc(OC)c1S(=O)(=O)Nc1noc2cc(Oc3nccs3)cc(OCF)c12 [reference compound] : 25.5
COC(=O)NCc1cnn(Cc2cc(OC(F)F)c3c(NS(=O)(=O)c4c(OC)cccc4OC)noc3c2)c1 [Syn. Ex. 50] : 2400
CC#CC(=O)NCc1cnn(Cc2cc(OC)c3c(NS(=O)(=O)c4cc(CC)ccc4OC)noc3c2)c1 [Syn. Ex. 15] : 1020

P = CCc1ccc(OC)c(S(=O)(=O)Nc2noc3cc(Oc4ncc(CNC(=O)OC)s4)cc(OC)c23)c1 [Syn. Ex. 101]
Q = C=C(F)C(=O)Nc1ccc(Oc2cc(OC)c3c(NS(=O)(=O)c4cc(CC)ccc4OC)noc3c2)nc1 [Syn. Ex. 107]
Of P and Q , whose reported IC50 is the larger number? Select an item and report its label.
P
(P: 2490 nM, Q: 1630 nM)

====

Listed molecules paired with reported EC50
System: ZR-75-1 cells
Assay: Cell Titer-Glo Luminescent Cell Viability Assay in ZR-75-1 Cells
Format: cell-based
Settings: Homo sapiens, compounds replenished every 48 hours till day 10, CellTiter-Glo

Please look up its EC50: CC#CC(=O)NCc1cnn(Cc2cc(OC)c3c(NS(=O)(=O)c4cc(CC)ccc4OC)noc3c2)c1 [Syn. Ex. 15]
100 to 1000 nM

====

Biological target: Recombinant KAT6A/MOZ (488-778) protein (Homo sapiens (Human))
Assay: KAT6A AlphaLISA Inhibition Screening Assay
Format: biochemical
Details: 1 μM test compound
Description: The Kat6a inhibitory activity of test compounds was determined using an Alpha Screen-based detection method. The assay reactions were conducted in a volume of 10 μL in Alpha Plate, White 384 well plate (cat #6008280, Perkin Elmer). The enzymatic reactions were performed in assay buffer pH 8.0 (50 mM Tris-HCl, 0.1 mM EDTA, 0.01% Tween-20, 1 mM Dithiothreitol, 0.1% BSA (fatty acid free) and 330 nM TSA (Trichostatin A)). […]
READOUT_KIND: Average Kat6A % inhibition @ 1 μM (%)

CC#CC(=O)NCc1cnn(Cc2cc(OC)c3c(NS(=O)(=O)c4cc5c(cc4OC)CCC5)noc3c2)c1 [Syn. Ex. 29] : 100
C=C(F)C(=O)NCc1cnn(Cc2cc3onc(NS(=O)(=O)c4ccccc4OC)c3cc2OC)c1 [Syn. Ex. 146] : 99
COC(=O)NCc1cnn(Cc2cc(OC)c3c(NS(=O)(=O)c4cc5c(cc4OC)CCC5)noc3c2)c1 [Syn. Ex. 25] : 100
C=C(F)C(=O)NCc1cnn(Cc2cc(OC)c3c(NS(=O)(=O)c4c(OC)ccnc4OC)noc3c2)c1 [Syn. Ex. 87] : 95
COC(=O)NCc1cnn(Cc2cc(OC)c3c(NS(=O)(=O)c4c(OC)ccnc4OC)noc3c2)c1 [Syn. Ex. 86] : 86
COC(=O)NCc1cnn(Cc2cc(OC)c3c(NS(=O)(=O)c4cc5c(cc4OC)CCCC5)noc3c2)c1 [Syn. Ex. 139] : 119
C#CC(=O)NCc1cnn(Cc2cc(OC)c3c(NS(=O)(=O)c4c(OC)ccnc4OC)noc3c2)c1 [Syn. Ex. 85] : 91
C=C(F)C(=O)NCc1cnn(Cc2cc(OC)c3c(NS(=O)(=O)c4cc5c(cc4OC)CCC5)noc3c2)c1 [Syn. Ex. 30] : 100
COc1ccccc1S(=O)(=O)Nc1noc2cc(Cn3cc(CNS(C)(=O)=O)cn3)cc(OC)c12 [Syn. Ex. 6] : 99
COC(=O)NCc1cnn(Cc2cc3onc(NS(=O)(=O)c4cc5c(cc4OC)CCC5)c3cc2OC)c1 [Syn. Ex. 147] : 101
COC(=O)NCc1cnn(Cc2cc3c4c(noc4c2)NS(=O)(=O)c2c(OC)cccc2OCCCCCO3)c1 [Syn. Ex. 138] : 111
CCc1cnc(OC)c(S(=O)(=O)Nc2noc3cc(Cn4cc(CNC(=O)OC)cn4)cc(OC)c23)c1 [Syn. Ex. 121] : 100
CCc1ccc(OC)c(S(=O)(=O)Nc2noc3cc(Oc4ncc(CNC(=O)OC)s4)c(OC)cc23)c1 [Syn. Ex. 149] : 101
